assay: Efflux ratio in MDCK2-MDR1 cells at 1 uM incubated fro 1 hr by LC-MS/MS method; assay type: ADME, cell-based, Canis lupus familiaris; details: dog, MDCK-MDR1
propertyLabel: efflux ratio at 1 h, 1 µM

Illustrative cases are given below, each with its answer.
| compound | efflux ratio at 1 h, 1 µM |
| --- | --- |
| CCCS(=O)(=O)NC1CN(c2ccc3c(c2)[C@@H](Cc2ccccc2)[C@@H](N2CCC2)CC3)C1 | 1.4 |
| O=S(=O)(CC1CC1)NCCOc1ccc2c(c1)[C@@H](Cc1ccccc1)[C@@H](N1CCC1)CC2 | 1.6 |
| CCCS(=O)(=O)N[C@@H]1CCN(c2ccc3c(c2)[C@@H](Cc2ccccc2)[C@@H](N2CCC2)CC3)C1=O | 1.6 |
| O=S(=O)(CC1CC1)NC1CN(c2ccc3c(c2)[C@@H](Cc2ccccc2)[C@@H](N2CCC2)CO3)C1 (relative stereo) | 1 |
| O=S(=O)(CC1CC1)NC1CN(c2ccc3c(c2)[C@@H](Cc2ccccc2)[C@@H](N2CCC2)CC3)C1 | 1.7 |

a: Cn1cnc(S(=O)(=O)NCCOc2ccc3c(c2)[C@@H](Cc2ccccc2)[C@@H](N2CCCC2)CC3)c1
b: CCCS(=O)(=O)NC1CN(c2ccc3c(c2)[C@@H](Cc2ccccc2)[C@@H](N2CCC2)CO3)C1 (relative stereo)
c: Cn1cnc(S(=O)(=O)NCCOc2ccc3c(c2)[C@@H](Cc2ccccc2)[C@@H](NCC(F)(F)F)CC3)c1 (relative stereo)
d: Cn1cnc(S(=O)(=O)NCCOc2ccc3c(c2)[C@@H](Cc2ccccc2)[C@@H](N2CCC2)CO3)c1
e: Cn1cnc(S(=O)(=O)NCCOc2ccc3c(c2)[C@@H](Cc2ccccc2)[C@@H](N2CCC2)CC3)c1
Order the records so the highest efflux ratio at 1 h, 1 µM appears first and the lowest last. Thanks in advance for listing the labels in the requested order.
e, a, d, c, b

###

# Voltage-gated inwardly rectifying potassium channel KCNH2 (Homo sapiens, UniProt Q12809): pIC50 values follow
# Sequence (Q12809 whole entry): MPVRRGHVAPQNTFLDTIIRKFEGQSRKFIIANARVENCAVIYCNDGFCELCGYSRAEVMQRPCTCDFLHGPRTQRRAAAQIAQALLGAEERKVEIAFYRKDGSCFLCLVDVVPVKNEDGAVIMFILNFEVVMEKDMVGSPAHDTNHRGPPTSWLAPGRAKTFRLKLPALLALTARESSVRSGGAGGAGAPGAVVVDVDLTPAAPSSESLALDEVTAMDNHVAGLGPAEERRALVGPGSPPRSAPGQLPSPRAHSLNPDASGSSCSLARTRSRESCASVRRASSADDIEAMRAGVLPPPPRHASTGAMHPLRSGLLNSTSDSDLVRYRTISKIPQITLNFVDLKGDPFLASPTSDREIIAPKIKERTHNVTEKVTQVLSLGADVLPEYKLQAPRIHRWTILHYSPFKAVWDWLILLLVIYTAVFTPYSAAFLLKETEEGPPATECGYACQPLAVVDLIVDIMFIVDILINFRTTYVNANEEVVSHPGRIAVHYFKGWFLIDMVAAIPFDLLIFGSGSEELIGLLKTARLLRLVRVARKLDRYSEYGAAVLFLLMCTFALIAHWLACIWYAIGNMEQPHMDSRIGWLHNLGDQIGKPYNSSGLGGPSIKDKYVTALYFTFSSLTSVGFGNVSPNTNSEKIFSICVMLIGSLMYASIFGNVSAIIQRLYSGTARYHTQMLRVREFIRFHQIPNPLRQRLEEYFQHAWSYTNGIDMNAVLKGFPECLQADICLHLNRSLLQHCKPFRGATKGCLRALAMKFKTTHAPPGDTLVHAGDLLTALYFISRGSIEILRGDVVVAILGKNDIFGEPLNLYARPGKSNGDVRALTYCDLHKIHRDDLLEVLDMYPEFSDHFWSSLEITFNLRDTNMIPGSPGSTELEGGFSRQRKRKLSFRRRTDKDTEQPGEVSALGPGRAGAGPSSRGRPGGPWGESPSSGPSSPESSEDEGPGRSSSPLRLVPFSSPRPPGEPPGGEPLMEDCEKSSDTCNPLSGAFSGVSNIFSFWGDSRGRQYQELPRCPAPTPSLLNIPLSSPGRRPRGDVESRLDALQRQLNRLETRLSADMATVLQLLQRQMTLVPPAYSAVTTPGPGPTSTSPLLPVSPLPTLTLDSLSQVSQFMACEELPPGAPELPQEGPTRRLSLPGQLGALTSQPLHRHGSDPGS
Keep it numeric: pIC50 is minus log10 of the concentration in mol/L.

| compound | numericValue |
| --- | --- |
| CCCS(=O)(=O)NC1CN(c2ccc3c(c2)[C@@H](Cc2ccccc2)[C@@H](N2CCC2)CC3)C1 | 5.17 |
| O=S(=O)(CC1CC1)NC1CN(c2ccc3c(c2)[C@@H](Cc2ccccc2)[C@@H](N2CCC2)CO3)C1 (relative stereo) | 4.94 |
| Cn1cnc(S(=O)(=O)NCCOc2ccc3c(c2)[C@@H](Cc2ccccc2)[C@@H](N2CCC2)CC3)c1 | 4.82 |
| O=S(=O)(CC1CC1)NC1CN(c2ccc3c(c2)[C@@H](Cc2ccccc2)[C@@H](N2CCC2)CC3)C1 | 5.36 |
| CCCS(=O)(=O)N[C@@H]1CCN(c2ccc3c(c2)[C@@H](Cc2ccccc2)[C@@H](N2CCC2)CC3)C1=O | 5.35 |

Output reported pIC50 of the compound "O=S(=O)(CC1CC1)NCCOc1ccc2c(c1)[C@@H](Cc1ccccc1)[C@@H](N1CCC1)CC2" on Voltage-gated inwardly rectifying potassium channel KCNH2 (Homo sapiens, UniProt Q12809).
7.10

###

pKi: −log10 of the molar value.
Reported pKi values, Sodium- and chloride-dependent glycine transporter 1 (Homo sapiens, UniProt P48067).
propertyLabel: pKi

Guide cases for pKi, answers given:
| compound | pKi |
| --- | --- |
| Cn1cnc(S(=O)(=O)NCc2ccc3c(c2)[C@@H](Cc2ccccc2)[C@@H](N2CCC2)CC3)c1 (relative stereo) | 8.52 |
| CS(=O)(=O)NCCOc1ccc2c(c1)[C@@H](Cc1ccc(Cl)c(Cl)c1)[C@@H](N)CC2 (relative stereo) | 6.85 |
| Cn1cnc(S(=O)(=O)NCCOc2ccc3c(c2)[C@@H](Cc2ccccc2)[C@@H](NCC(F)(F)F)CC3)c1 (relative stereo) | 7.16 |
| N[C@H]1CCc2ccc(OCCNS(=O)(=O)c3cccs3)cc2[C@H]1Cc1ccc(Cl)c(Cl)c1 (relative stereo) | 6.79 |
| O=S(=O)(CC1CC1)NC1CN(c2ccc3c(c2)[C@@H](Cc2ccccc2)[C@@H](N2CCC2)CO3)C1 (relative stereo) | 7.74 |
| CCCS(=O)(=O)N[C@@H]1CCN(c2ccc3c(c2)[C@@H](Cc2ccccc2)[C@@H](N2CCC2)CC3)C1=O | 7.55 |
| CN[C@H]1CCc2ccc(OCCNS(=O)(=O)CC3CC3)cc2[C@H]1Cc1ccccc1 | 8.92 |
| Cn1cnc(S(=O)(=O)NCCOc2ccc3c(c2)[C@@H](Cc2ccccc2)[C@@H](N2CCC2)CO3)c1 | 8.48 |
| CCCCS(=O)(=O)NCCOc1ccc2c(c1)[C@@H](Cc1ccc(Cl)c(Cl)c1)[C@@H](N)CC2 (relative stereo) | 6.87 |
| N[C@H]1CCc2ccc(OCCNS(=O)(=O)C3CCC3)cc2[C@H]1Cc1ccc(Cl)c(Cl)c1 (relative stereo) | 7.49 |

a: Oc1ccc2c(c1)C(C1(c3ccc(Cl)cc3)CCC1)NCC2 (configuration not stated)
b: Cn1cnc(S(=O)(=O)NCCOc2ccc3c(c2)[C@@H](Cc2ccc(Cl)c(Cl)c2)[C@@H](N)CC3)c1 (relative stereo)
Between the entries labelled a and b , which has a larger pKi value on record? Mark your answer with the label of the selected entry.
b
(b: 8.59, a: 6.91)

###

assay: Clearance in human liver microsomes at 0.5 uM incubated up to 30 mins in presence of NADPH by LC-MS/MS method; format: ADME, microsome; settings: read-out: CLH
propertyLabel: microsomal CLint at 0.5 µM (µL/min/mg)

As a guide, the following entries are already answered.
| molecule | microsomal CLint at 0.5 µM, µL/min/mg |
| --- | --- |
| Cn1cnc(S(=O)(=O)NCCOc2ccc3c(c2)[C@@H](Cc2ccccc2)[C@@H](N2CCC2)CC3)c1 | 10 |
| N[C@H]1CCc2ccc(OCCNS(=O)(=O)CC3CC3)cc2[C@H]1Cc1ccc(Cl)c(Cl)c1 (relative stereo) | 92 |
| N[C@H]1CCc2ccc(OCCNS(=O)(=O)c3ccccc3)cc2[C@H]1Cc1ccc(Cl)c(Cl)c1 | 78 |
| CCCS(=O)(=O)NCc1ccc2c(c1)[C@@H](Cc1ccccc1)[C@@H](N1CCC1)CC2 (relative stereo) | 122 |

A: N[C@H]1CCc2ccc(OCCNS(=O)(=O)C3CCC3)cc2[C@H]1Cc1ccc(Cl)c(Cl)c1 (relative stereo)
B: N[C@H]1CCc2ccc(OCCNS(=O)(=O)c3cccs3)cc2[C@H]1Cc1ccc(Cl)c(Cl)c1 (relative stereo)
Between the entries labeled A and B , whose measured microsomal CLint at 0.5 µM is lower? Select an item and report its label.
A
(A: 55 µL/min/mg, B: 99 µL/min/mg)

###

assay: Clearance in human liver microsomes at 0.5 uM incubated up to 30 mins in presence of NADPH by LC-MS/MS method; assay type: ADME, microsome; settings: read-out: CLH
propertyLabel: microsomal CLint at 0.5 µM (µL/min/mg)

| compound | microsomal CLint at 0.5 µM (µL/min/mg) |
| --- | --- |
| Cn1cc(S(=O)(=O)NCCOc2ccc3c(c2)[C@@H](Cc2ccc(Cl)c(Cl)c2)[C@@H](N)CC3)cn1 (relative stereo) | 44 |
| CS(=O)(=O)NCCOc1ccc2c(c1)[C@@H](Cc1ccc(Cl)c(Cl)c1)[C@@H](N)CC2 (relative stereo) | 25 |

P: CCCS(=O)(=O)NCCOc1ccc2c(c1)C(C1(c3ccc(Cl)cc3)CCC1)NCC2 (configuration not stated)
Q: O=S(=O)(CC1CC1)NCCOc1ccc2c(c1)[C@@H](Cc1ccccc1)[C@@H](N1CCC1)CC2
Compare P and Q and name the one whose reported microsomal CLint at 0.5 µM is smaller. Indicate which entry you chose by stating its label.
Q
(Q: 113 µL/min/mg, P: 620 µL/min/mg)

###

assay: fCmax in Sprague-Dawley rat brain at 2 mg/kg, ip measured after 8 to 24 hrs by LC-MS/MS method; type: ADME, organism-based; details: in vivo
propertyLabel: fCmax (nM)

| molecule | numericValue |
| --- | --- |
| Cn1cc(S(=O)(=O)NCCOc2ccc3c(c2)[C@@H](Cc2ccc(Cl)c(Cl)c2)[C@@H](N)CC3)cn1 (relative stereo) | 0.2 |
| CN[C@H]1CCc2ccc(OCCNS(=O)(=O)CC3CC3)cc2[C@H]1Cc1ccccc1 | 2.3 |
| Cn1cnc(S(=O)(=O)NCCOc2ccc3c(c2)[C@@H](Cc2ccccc2)[C@@H](N2CCC2)CC3)c1 | 2 |

P: Cn1cnc(S(=O)(=O)NCCOc2ccc3c(c2)[C@@H](Cc2ccccc2)[C@@H](N2CCCC2)CC3)c1
Q: O=S(=O)(CC1CC1)NC1CN(c2ccc3c(c2)[C@@H](Cc2ccccc2)[C@@H](N2CCC2)CC3)C1
R: O=S(=O)(CC1CC1)NCCOc1ccc2c(c1)[C@@H](Cc1ccccc1)[C@@H](N1CCC1)CC2
Please list these in order of increasing fCmax. Thank you! Answer format: the labels, in the requested order.
P, R, Q

This collection of values is drawn from ChEMBL document CHEMBL4145681.
